Exercise: state measured noFAD/FAD for each of the binders provided.
Target: Diaphorase
Assay: peptide array, 1 uM diaphorase, binding without FAD / with FAD
Give bare numbers.

The following binders have reported results that may help.
{"columns": ["binder", "recorded number"],
 "data": [
  ["YNRNAKSSGGSG", 2.6],
  ["PRYSGQYGGSG", 2.61],
  ["FGKLYQLYNDGSG", 0.627]
]}

Report noFAD/FAD for each item below.
1. PRSFGYNNVGGSG
2. RQYQKHSYAKFSGSG
3. RYPWNKLYKFDGSG
4. VFGVLSQVARDGSG
5. WRGFKFADGGSG

[2.71, 2.75, 2.8, 0.64, 2.62]

Reference source for all entries: patent US20190064177A1
